Molecular target: Organic anion transporter 3 (OAT3) (Rattus norvegicus, UniProt Q9R1U7)
Sequence (Q9R1U7 whole entry): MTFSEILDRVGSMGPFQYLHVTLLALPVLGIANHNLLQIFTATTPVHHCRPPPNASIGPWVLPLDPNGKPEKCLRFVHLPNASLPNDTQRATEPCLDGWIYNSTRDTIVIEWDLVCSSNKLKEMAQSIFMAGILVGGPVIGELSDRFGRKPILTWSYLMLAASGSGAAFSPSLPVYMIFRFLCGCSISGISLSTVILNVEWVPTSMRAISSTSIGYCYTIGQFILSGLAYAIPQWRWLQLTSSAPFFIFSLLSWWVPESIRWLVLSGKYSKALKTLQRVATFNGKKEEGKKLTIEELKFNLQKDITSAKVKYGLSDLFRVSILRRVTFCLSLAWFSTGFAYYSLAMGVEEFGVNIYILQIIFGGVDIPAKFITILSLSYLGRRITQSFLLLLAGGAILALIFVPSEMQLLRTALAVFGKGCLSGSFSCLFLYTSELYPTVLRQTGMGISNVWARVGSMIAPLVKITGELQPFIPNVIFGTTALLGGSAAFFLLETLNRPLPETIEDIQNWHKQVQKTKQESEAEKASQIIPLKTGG
Experiment: TP_TRANSPORTER: inhibition of Indoxyl sulfate uptake (indoxyl sulfate: 2 uM, 4-Hydroxyphenylacetic acid: 1000 uM) in Xenopus laevis oocytes
Assay type: functional, cell-based, Oocyte
Set-up: scale not given: the % may be the effect or the level left
Settings: probe indoxyl sulfate (2 uM), read-out: Activity
Measured property: activity at 1000 µM (%)
A number alone suffices; assume %.

Lab note: compound O=C(O)Cc1ccc(O)cc1 tested on Organic anion transporter 3 (OAT3) (Rattus norvegicus, UniProt Q9R1U7); recorded activity at 1000 µM was 29.7

====

Molecular target: Organic anion transporter 3 (OAT3) (Rattus norvegicus, UniProt Q9R1U7)
Assay: TP_TRANSPORTER: inhibition of Indoxyl sulfate uptake (indoxyl sulfate: 2 uM, 2-Hydroxycinnamic acid: 1000 uM) in Xenopus laevis oocytes
Assay type: functional, cell-based, Oocyte
Parameters: scale not given: the % may be the effect or the level left
Conditions: probe indoxyl sulfate (2 uM), read-out: Activity
Measured property: activity at 1000 µM (%)
A number alone suffices; assume %.

Form: molecule = O=C(O)/C=C/c1ccccc1O ; activity at 1000 µM = 39.5

====

Molecular target: Organic anion transporter 3 (OAT3) (Rattus norvegicus)
Sequence (Q9R1U7 whole entry): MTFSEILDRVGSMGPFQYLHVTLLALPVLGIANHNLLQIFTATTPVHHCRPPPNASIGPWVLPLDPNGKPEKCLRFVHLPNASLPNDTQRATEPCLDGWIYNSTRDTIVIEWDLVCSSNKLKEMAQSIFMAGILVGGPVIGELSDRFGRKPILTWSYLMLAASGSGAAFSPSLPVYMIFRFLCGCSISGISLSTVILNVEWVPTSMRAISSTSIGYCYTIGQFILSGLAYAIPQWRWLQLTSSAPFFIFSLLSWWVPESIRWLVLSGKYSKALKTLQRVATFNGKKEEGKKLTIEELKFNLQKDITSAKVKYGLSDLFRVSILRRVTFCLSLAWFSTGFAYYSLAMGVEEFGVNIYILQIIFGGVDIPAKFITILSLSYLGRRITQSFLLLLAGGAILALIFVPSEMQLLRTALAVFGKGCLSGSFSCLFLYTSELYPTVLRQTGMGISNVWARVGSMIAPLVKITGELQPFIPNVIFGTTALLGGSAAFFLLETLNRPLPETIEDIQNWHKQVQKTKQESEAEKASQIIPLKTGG
Experiment: TP_TRANSPORTER: inhibition of Indoxyl sulfate uptake (indoxyl sulfate: 2 uM, CMPF: 1000 uM) in Xenopus laevis oocytes
Format: functional, cell-based, Oocyte
Design: scale not given: the % may be the effect or the level left
Conditions: probe indoxyl sulfate (2 uM), read-out: Activity
Measured property: activity at 1000 µM (%)
A number alone suffices; assume %.

Form: compound = CCCc1oc(CCC(=O)O)c(C(=O)O)c1C ; activity at 1000 µM = 8.38
